Molecular target: dopamine-D2 receptors (Rattus norvegicus, UniProt P61169)
Construct: labels dopamine receptors in rat pituitary and brain; from tissue; host or cells: rat brain / pituitary membranes (from the title of the cited method)
Sequence (P61169 whole entry): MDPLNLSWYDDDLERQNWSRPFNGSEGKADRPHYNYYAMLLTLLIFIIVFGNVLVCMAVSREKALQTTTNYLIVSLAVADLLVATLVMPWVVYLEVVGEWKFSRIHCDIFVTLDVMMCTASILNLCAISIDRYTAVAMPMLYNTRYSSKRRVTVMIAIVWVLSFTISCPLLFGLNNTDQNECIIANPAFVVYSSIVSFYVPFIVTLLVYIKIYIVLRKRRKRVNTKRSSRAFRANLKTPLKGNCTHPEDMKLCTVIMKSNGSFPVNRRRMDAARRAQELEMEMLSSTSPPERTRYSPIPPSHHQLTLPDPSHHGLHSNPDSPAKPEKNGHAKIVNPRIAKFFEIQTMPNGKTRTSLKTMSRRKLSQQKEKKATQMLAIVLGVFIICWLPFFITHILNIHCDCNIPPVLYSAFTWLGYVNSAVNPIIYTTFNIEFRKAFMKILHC
Test: In vitro affinity for dopamine-D2 receptors ([3H]-spiroperidol receptor binding assay, Creese et al.)
Conditions: receptor binding; read-out: Dopamine-D2 binding pKi (converted)
Value kind: Ki (µM)
Entry rule: numbers only, all in µM.

Recorded Ki, per entry:
Cn1c(=O)oc2c(N3CCN(CCCCc4c[nH]c5ccc(C#N)cc45)CC3)cccc21 [compound 12] : 0.00794
CC(CCc1c[nH]c2ccc(F)cc12)N1CCN(c2cccc3c2oc(=O)n3C)CC1 (stereo not shown) [compound 2] : 0.158
CC(CCN1CCN(c2cccc3c2oc(=O)n3C)CC1)c1c[nH]c2ccc(F)cc12 (stereo not shown) [compound 3] : 0.1

Next up:
(Q) For the molecule CC(Cc1c[nH]c2ccc(F)cc12)CN1CCN(c2cccc3c2oc(=O)n3C)CC1 (stereo not shown) [compound 4] , what Ki is on record?
(A) 0.00794
